- assay comment: Drug uptake in human type-A erythrocytes infected with Plasmodium falciparum D6 at 3.55 uM after 2 hrs by LC-MS analysis
- Assay type: ADME, cell-based
- particulars: erythrocyte

compound: C[C@@H]1[C@@H](OC(=O)NC2CC2c2ccccc2)C[C@H]2[C@@H](C)C(=O)O[C@@H]3O[C@]4(C)CC[C@@H]1[C@]32OO4 (stereo partly drawn)
Drug uptake [%]: 51.63

compound: C[C@@H]1CC[C@H]2[C@@H](C)C(=O)O[C@@H]3O[C@@]4(C)CC[C@@H]1[C@]32OO4
Drug uptake [%]: 61.07

compound: C[C@@H]1CC[C@H]2[C@@H](CN3C(=O)CSC3=O)C(=O)O[C@@H]3O[C@]4(C)CC[C@@H]1[C@]32OO4
Drug uptake [%]: 57.69

###

- assay comment: Toxicity in human type-A RBC assessed as hematocrit at 3.55 uM after 2 hrs
- Format: cell-based
- particulars: erythrocyte
Each item that follows carries a reported Activity.

compound string: C[C@@H]1CC[C@H]2[C@@H](CCCc3cc(C(F)(F)F)cc(C(F)(F)F)c3)CO[C@@H]3O[C@]4(C)CC[C@@H]1[C@]32OO4
u: %
Activity: 33
--
compound string: C[C@H]1C(=O)O[C@@H]2O[C@@]3(C)CC[C@@H]4[C@@]2(OO3)[C@H]1CC[C@]4(C)O
u: %
Activity: 33
--
compound string: C[C@@H]1[C@@H](OC(=O)Nc2ccccc2)C[C@H]2[C@@H](C)C(=O)O[C@@H]3O[C@]4(C)CC[C@@H]1[C@]32OO4
u: %
Activity: 33

###

Catalogue of Drug uptake values
- assay comment: Drug uptake in human type-A RBC at 3.55 uM after 2 hrs by LC-MS analysis
- Assay type: ADME, cell-based
- particulars: erythrocyte

compound: C[C@@H]1CC[C@H]2[C@@H](CN3C(=O)CCC3=O)C(=O)O[C@@H]3O[C@]4(C)CC[C@@H]1[C@]32OO4
Drug uptake: 36.57%
//
compound: CCCCCCCCCCCCCC[C@H]1C(=O)O[C@@H]2O[C@]3(C)CC[C@H]4[C@H](C)CC[C@@H]1[C@@]24O3
Drug uptake: 45.09%
//
compound: C[C@@H]1CC[C@H]2[C@@H](CCCc3ccc(S(C)(=O)=O)cc3)C(=O)O[C@@H]3O[C@]4(C)CC[C@@H]1[C@]32OO4
Drug uptake: 38.53%
//
compound: C[C@@H]1CC[C@H]2[C@@H](CCCc3ccc(N(C)C)cc3)C(=O)O[C@@H]3O[C@]4(C)CC[C@@H]1[C@]32OO4.Cl
Drug uptake: 32.82%
//
compound: C[C@@H]1CC[C@H]2[C@@H](CN3C(=O)CSC3=O)C(=O)O[C@@H]3O[C@]4(C)CC[C@@H]1[C@]32OO4
Drug uptake: 33.94%
//
compound: C[C@@H]1[C@@H](OC(=O)NC2CC2c2ccccc2)C[C@H]2[C@@H](C)C(=O)O[C@@H]3O[C@]4(C)CC[C@@H]1[C@]32OO4 (some centres undefined)
Drug uptake: 32.31%
//
compound: C[C@@H]1[C@@H](O)C[C@H]2[C@@H](C)C(=O)O[C@@H]3O[C@]4(C)CC[C@@H]1[C@]32OO4
Drug uptake: 33.1%
//
compound: C[C@@H]1CC[C@H]2[C@@H](CCCc3cc(C(F)(F)F)cc(C(F)(F)F)c3)C(=O)O[C@@H]3O[C@]4(C)CC[C@@H]1[C@]32OO4
Drug uptake: 41.07%
//
compound: C[C@@H]1CC[C@H]2CC(=O)O[C@@H]3O[C@]4(CC(=O)O)CC[C@@H]1[C@@]23OO4
Drug uptake: 34.03%

###

- assay comment: Drug uptake in human type-A RBC at 3.55 uM after 2 hrs by LC-MS analysis
- Type: ADME, cell-based
- particulars: erythrocyte
Recorded Drug uptake for the following compounds

compound: C[C@@H]1CC[C@H]2[C@@H](CCCc3cc(C(F)(F)F)cc(C(F)(F)F)c3)[C@H](O)O[C@@H]3O[C@]4(C)CC[C@@H]1[C@]32OO4
Drug uptake (%): 40.43

compound: C[C@@H]1CC[C@H]2[C@@H](CCCc3ccc(O)cc3)C(=O)O[C@@H]3O[C@]4(C)CC[C@@H]1[C@]32OO4.Cl
Drug uptake (%): 39.01

compound: CC(C)CN1C(=O)C[C@@H]2CC[C@@H](C)[C@@H]3CC[C@]4(C)OO[C@@]23[C@H]1O4
Drug uptake (%): 35.17

compound: CCCC[C@H]1C(=O)O[C@@H]2O[C@]3(CC)CC[C@H]4[C@H](C)CC[C@@H]1[C@@]24OO3
Drug uptake (%): 39.11

compound: C[C@@H]1CC[C@H]2[C@@H](C)C(=O)O[C@@H]3O[C@@]4(C)CC[C@@H]1[C@]32OO4 [ARTEMISININ]
Drug uptake (%): 34.68

compound: C[C@@H]1[C@@H](OC(=O)Nc2cccc3ccccc23)C[C@H]2[C@@H](C)C(=O)O[C@@H]3O[C@]4(C)CC[C@@H]1[C@]32OO4
Drug uptake (%): 32.63

compound: C[C@@H]1CC[C@H]2[C@@H](CC(=O)O)C(=O)O[C@@H]3O[C@]4(C)CC[C@@H]1[C@]32OO4
Drug uptake (%): 33.92

compound: C[C@@H]1CC[C@H]2CC(=O)O[C@@H]3O[C@]4(CCc5ccccc5)CC[C@@H]1[C@@]23OO4
Drug uptake (%): 38.96

compound: C[C@@H]1CC[C@H]2[C@@H](CCCc3cccc(Cl)c3)[C@H](O)O[C@@H]3O[C@]4(C)CC[C@@H]1[C@]32OO4
Drug uptake (%): 40.13

compound: C[C@@H]1CC[C@H]2[C@@H](CCCc3cc(C(F)(F)F)cc(C(F)(F)F)c3)CO[C@@H]3O[C@]4(C)CC[C@@H]1[C@]32OO4
Drug uptake (%): 42.11

compound: C[C@H]1C(=O)O[C@@H]2O[C@@]3(C)CC[C@@H]4[C@@]2(OO3)[C@H]1CC[C@]4(C)O
Drug uptake (%): 32.99

compound: C[C@@H]1[C@@H](OC(=O)Nc2ccccc2)C[C@H]2[C@@H](C)C(=O)O[C@@H]3O[C@]4(C)CC[C@@H]1[C@]32OO4
Drug uptake (%): 32.18

compound: C[C@@H]1CC[C@H]2[C@@H](CCCc3cc(F)cc(F)c3)CO[C@@H]3O[C@]4(C)CC[C@@H]1[C@]32OO4
Drug uptake (%): 40.01

compound: C[C@@H]1CC[C@H]2CC(=O)N(CCc3ccccc3)[C@@H]3O[C@]4(C)CC[C@@H]1[C@@]23OO4
Drug uptake (%): 38.43

###

- assay comment: Drug uptake in human type-A erythrocytes infected with Plasmodium falciparum D6 at 3.55 uM after 2 hrs by LC-MS analysis
- Type: ADME, cell-based
- particulars: erythrocyte
Below is a list of entries, each paired with its recorded Drug uptake value.

compound string: C[C@@H]1CC[C@H]2CC(=O)O[C@@H]3O[C@]4(CC(=O)O)CC[C@@H]1[C@@]23OO4
Drug uptake: 54.51%
--
compound string: C[C@@H]1CC[C@H]2[C@@H](CN3C(=O)CCC3=O)C(=O)O[C@@H]3O[C@]4(C)CC[C@@H]1[C@]32OO4
Drug uptake: 66.06%
--
compound string: C[C@@H]1CC[C@H]2[C@@H](CCCc3ccc(S(C)(=O)=O)cc3)C(=O)O[C@@H]3O[C@]4(C)CC[C@@H]1[C@]32OO4
Drug uptake: 61.9%
--
compound string: C[C@@H]1CC[C@H]2[C@@H](CCCc3cc(F)cc(F)c3)CO[C@@H]3O[C@]4(C)CC[C@@H]1[C@]32OO4
Drug uptake: 70.91%
--
compound string: C[C@@H]1CC[C@H]2[C@@H](CCCc3ccc(O)cc3)C(=O)O[C@@H]3O[C@]4(C)CC[C@@H]1[C@]32OO4.Cl
Drug uptake: 63.09%
--
compound string: C[C@@H]1CC[C@H]2[C@@H](CCCc3cc(C(F)(F)F)cc(C(F)(F)F)c3)[C@H](O)O[C@@H]3O[C@]4(C)CC[C@@H]1[C@]32OO4
Drug uptake: 71.76%

###

- assay comment: Drug uptake in human type-A erythrocytes infected with Plasmodium falciparum D6 at 3.55 uM after 2 hrs by LC-MS analysis
- Format: ADME, cell-based
- particulars: erythrocyte
measured quantity: Drug uptake

compound string: CC(C)CN1C(=O)C[C@@H]2CC[C@@H](C)[C@@H]3CC[C@]4(C)OO[C@@]23[C@H]1O4
result: 61.51%
//
compound string: C[C@@H]1CC[C@H]2[C@@H](CCCc3cc(C(F)(F)F)cc(C(F)(F)F)c3)C(=O)O[C@@H]3O[C@]4(C)CC[C@@H]1[C@]32OO4
result: 72.09%
//
compound string: C[C@@H]1CC[C@H]2[C@@H](CC(=O)O)C(=O)O[C@@H]3O[C@]4(C)CC[C@@H]1[C@]32OO4
result: 54.23%
//
compound string: CCCC[C@H]1C(=O)O[C@@H]2O[C@]3(CC)CC[C@H]4[C@H](C)CC[C@@H]1[C@@]24OO3
result: 62.5%
//
compound string: C[C@@H]1CC[C@H]2[C@@H](CCCc3cc(C(F)(F)F)cc(C(F)(F)F)c3)CO[C@@H]3O[C@]4(C)CC[C@@H]1[C@]32OO4
result: 72%
//
compound string: C[C@@H]1CC[C@H]2CC(=O)O[C@@H]3O[C@]4(CCc5ccccc5)CC[C@@H]1[C@@]23OO4
result: 62.34%
//
compound string: C[C@@H]1CC[C@H]2[C@@H](CCCc3ccc(N(C)C)cc3)C(=O)O[C@@H]3O[C@]4(C)CC[C@@H]1[C@]32OO4.Cl
result: 51.92%
//
compound string: C[C@@H]1CC[C@H]2CC(=O)N(CCc3ccccc3)[C@@H]3O[C@]4(C)CC[C@@H]1[C@@]23OO4
result: 61.8%
//
compound string: C[C@H]1C(=O)O[C@@H]2O[C@@]3(C)CC[C@@H]4[C@@]2(OO3)[C@H]1CC[C@]4(C)O
result: 53.89%
//
compound string: C[C@@H]1CC[C@H]2[C@@H](CCCc3cccc(Cl)c3)[C@H](O)O[C@@H]3O[C@]4(C)CC[C@@H]1[C@]32OO4
result: 71.21%
//
compound string: CCCCCCCCCCCCCC[C@H]1C(=O)O[C@@H]2O[C@]3(C)CC[C@H]4[C@H](C)CC[C@@H]1[C@@]24O3
result: 73%
//
compound string: C[C@@H]1[C@@H](OC(=O)Nc2cccc3ccccc23)C[C@H]2[C@@H](C)C(=O)O[C@@H]3O[C@]4(C)CC[C@@H]1[C@]32OO4
result: 51.68%
//
compound string: C[C@@H]1[C@@H](O)C[C@H]2[C@@H](C)C(=O)O[C@@H]3O[C@]4(C)CC[C@@H]1[C@]32OO4
result: 53.9%
//
compound string: C[C@@H]1[C@@H](OC(=O)Nc2ccccc2)C[C@H]2[C@@H](C)C(=O)O[C@@H]3O[C@]4(C)CC[C@@H]1[C@]32OO4
result: 51.04%

Origin of values: ChEMBL document CHEMBL1155243
